Consider the following molecules; for each one, report its z-score.
Target Under Test: NADPH oxidase 2 (Homo sapiens)
Test Method Notes: NOX2-dependent H2O2 signal modulators, primary screen, NOX inhibitor project, cell-based, HEK293-NOX2, PMA-stimulated, Amplex Red fluorescence (AID 1159); note: test concentration not given here
Condition Set: 45 min, higher = more signal, called active from +8 up or from −8 down
Give your answer as a number; write no unit.

Given CC(C)N1CC=CC23O[C@@H]4C=CCOC(=O)[C@@H]4[C@H]2C(=O)N(CCCO)[C@@H]3C1=O (some centres undefined) , report its z-score on NADPH oxidase 2 (Homo sapiens). 0.0484

Given O=C1C2C=CC(C(O)c3ccc(F)cc3)N(n3cnnc3)C2C(=O)N1Cc1ccccc1 (centres undefined) , report its z-score on NADPH oxidase 2 (Homo sapiens). -3.1

Given COC1OC[C@]2(C)[C@H]3C4=C(CN2C(=O)OC(C)(C)C)[C@H](C)C(CO)C(CO)C4CC[C@@H]13 (some centres undefined) , report its z-score on NADPH oxidase 2 (Homo sapiens). -1.39

Given O=C1NC(=O)C2C1C=CC(C(O)c1c(F)cccc1Cl)N2Nc1ccc(Cl)cc1Cl (centres undefined) , report its z-score on NADPH oxidase 2 (Homo sapiens). 0.295

Given C=CCC(OC(C)=O)[C@@H]1[C@@H](N(Cc2cccc3ccccc23)C(=O)Cc2ccc(OC)cc2)c2cc(OCCCO)ccc2N1C(=O)c1ccc2ccccc2n1 (some centres undefined) , report its z-score on NADPH oxidase 2 (Homo sapiens). -1.4

Given COC(=O)[C@@]1(Cc2ccc(OC)cc2)[C@H]2c3cc(C(=O)N(C)C)n(Cc4ccc(Cl)c(C(F)(F)F)c4)c3C[C@H]2CN1C(=O)c1ccccc1 , report its z-score on NADPH oxidase 2 (Homo sapiens). 1.19

Given COc1ccc([Si](C)(C)[C@@H]2[C@@H](CCn3cc([C@H](O)c4ccccc4)nn3)O[C@]3(C(=O)N(Cc4ccc(N5CCC5=O)cc4)c4ccccc43)[C@H]2C)cc1 , report its z-score on NADPH oxidase 2 (Homo sapiens). 0.193

Given COc1ccc([Si](C)(C)[C@@H]2[C@@H](CCO)O[C@]3(C(=O)N(Cc4ccc(N5CCCCC5=O)cc4)c4ccccc43)[C@H]2C)cc1 , report its z-score on NADPH oxidase 2 (Homo sapiens). 0.381

Given COC(=O)[C@@]1(Cc2ccc(OC)cc2)[C@H]2c3cc(C(=O)N(C)C)n(CCO)c3C[C@H]2CN1C(=O)c1ccccc1 , report its z-score on NADPH oxidase 2 (Homo sapiens). 0.331

Given Cc1ccc(S[C@]2(C(=O)NCCCN(C)C)CC(=O)N(C3CCCCC3)[C@@H]2c2ccc(CO)cc2)cc1 , report its z-score on NADPH oxidase 2 (Homo sapiens). -2.24

Given Cc1ccc(S[C@]2(C(=O)O)CC(=O)N(C3Cc4ccccc4C3)[C@@H]2c2ccc(CO)cc2)cc1 , report its z-score on NADPH oxidase 2 (Homo sapiens). -0.0451

Given COCCOC(=O)N1C(=O)[C@@]2(c3cc(C#CC4=CCCCC4)ccc31)[C@H](c1ccccc1OCCO)N1[C@H](c3ccccc3)[C@H](c3ccccc3)OC(=O)[C@H]1[C@@H]2C(=O)Nc1nc2ccccc2s1 , report its z-score on NADPH oxidase 2 (Homo sapiens). 1.59

Given Cc1cc(C)c(C(O)C2C=CC3C(=O)N(c4ccccc4)C(=O)C3N2Nc2ccc(C(C)C)cc2)c(C)c1 (centres undefined) , report its z-score on NADPH oxidase 2 (Homo sapiens). -1.82

Given C=CC[C@]1(C(=O)NCCN2CCOCC2)N=C(c2ccc(OCCCO)cc2)O[C@H]1c1ccccc1CN=[N+]=[N-] , report its z-score on NADPH oxidase 2 (Homo sapiens). 2.07

* * *

Consider the following molecules; for each one, report its z-score.
Test Method Notes: modulators of S6 phosphorylation in cells, primary screen, cell-based, A549, cytoblot, luminescence, serum-stimulated (AID 1158);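 note: serum-stimulated A549 lung adenocarcinoma cells; signal is phosphorylated S6 detected by cytoblot immunostaining with HRP secondary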
Condition Set: A549 phospho-S6 cytoblot, 5 h, higher = more signal
Give your answer as a number; write no unit.

# return recorded z-score for input N#Cc1ccc(NN2C(C(O)c3ccc(F)cc3)C=CC3C(=O)N(c4ccccc4)C(=O)C32)cc1 (configuration not stated) -0.491

# return recorded z-score for input CO[C@]12C=C(Br)[C@@H](C[C@@H]1c1cccc(C)c1)[C@@]1(CO1)C2=O 0.149

# return recorded z-score for input CCOC(=O)[C@H]1[C@@H]2C(=O)N3CCC[C@H]3[C@H](O[Si](C(C)C)(C(C)C)C(C)C)[C@H]2C=C2CCN(S(=O)(=O)c3ccc(C)cc3)C[C@H]21 0.582

# return recorded z-score for input CCCC[C@@H]1C[C@H]1[C@@H](NC(=O)Cc1ccccc1)c1ccc(-c2ccccc2)cc1 0.871

# return recorded z-score for input O=C1O[C@H](c2ccccc2)[C@H](c2ccccc2)N2[C@H]1[C@@H](C(=O)Nc1nc3ccccc3s1)[C@]1(C(=O)Nc3ccccc31)[C@H]2c1ccc(OCCO)cc1 -0.357

# return recorded z-score for input CCCC[C@@H](O)C1=C(COc2ccccc2)C[C@H]2C(=O)N(C)C(=O)[C@H]2[C@H]1CO 1.56

# return recorded z-score for input CN(C)C(=O)[C@@]1(CCS(=O)(=O)c2ccccc2)N=C(c2ccc(OCCCO)cc2)O[C@H]1c1ccccc1 -0.789

* * *

Target Under Test: Streptavidin (Streptomyces avidinii) (UniProt P22629)
Sequence (P22629 whole entry, looked up): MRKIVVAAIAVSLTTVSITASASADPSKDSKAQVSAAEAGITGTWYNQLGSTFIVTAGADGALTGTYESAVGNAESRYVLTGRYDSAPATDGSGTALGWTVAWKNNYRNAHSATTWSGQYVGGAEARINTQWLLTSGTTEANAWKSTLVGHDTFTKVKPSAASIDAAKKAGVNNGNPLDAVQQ
Test Method Notes: streptavidin binders on small-molecule microarray, primary screen, artefact control for SMM compound annotation, biophysical, 635/667 nm fluorescence (AID 1147);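 note: signal reflects streptavidin binding to arrayed compounds as a control protein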
Condition Set: streptavidin binding, higher = more signal
Decide by composite z-score: equal to or exceeding -0.1 means true (1), less means false (0).

Test whether the compound CCCCCCc1nc(C2CC2)cc2c1[Si](C(C)C)(C(C)C)OC2 records composite z-score of -0.1 or higher. true (1)

Test whether the compound COC(=O)[C@@]1(Cc2ccc(OC)cc2)[C@H]2c3cc(C(=O)N4CCCC4)n(Cc4cccc5ccccc45)c3C[C@H]2CN1C(=O)c1ccccc1 records composite z-score of -0.1 or higher. true (1)

Test whether the compound NCCCCCNC(=O)[C@@H]1C[C@@H]2C(=O)NCC(=O)N2[C@@H]1c1cccc(OCCO)c1 records composite z-score of -0.1 or higher. true (1)

Test whether the compound C=C(/C(=C/C[C@H](OC(=O)c1ccncc1)c1ccc(CO)o1)c1cc(C(=O)OC)ccc1OC)C(C)C records composite z-score of -0.1 or higher. false (0)

Test whether the compound COCCCNC(=O)[C@@]1(Cc2ccccc2N=[N+]=[N-])COC(c2ccc(OCCCO)cc2)=N1 records composite z-score of -0.1 or higher. true (1)

Test whether the compound COc1ccc(C(O)C2C=CC3C(=O)N(c4ccccc4)C(=O)C3N2Nc2ccc([N+](=O)[O-])cc2)cc1 (stereo not given) records composite z-score of -0.1 or higher. true (1)

Test whether the compound COc1ccccc1CN1C(=O)c2ccccc2[C@](Cc2ccccc2I)(C(=O)NCC(F)(F)F)[C@@H]1c1ccc(CO)cc1 records composite z-score of -0.1 or higher. true (1)

Test whether the compound COc1ccc([Si](C)(C)[C@@H]2[C@@H](CC(=O)N(CCO)Cc3ccccc3)O[C@]3(C(=O)N(Cc4cccc(N5CCOC5=O)c4)c4ccccc43)[C@H]2C)cc1 records composite z-score of -0.1 or higher. false (0)

Test whether the compound NC(=O)NCC#Cc1ccc2c(c1)[C@]1(C(=O)N2)[C@H](C(=O)O)[C@H]2C(=O)O[C@H](c3ccccc3)[C@H](c3ccccc3)N2[C@@H]1c1ccc(OCCO)cc1 records composite z-score of -0.1 or higher. true (1)

Test whether the compound COCCOC(=O)N1C(=O)[C@@]2(c3cc(C#CC4=CCCCC4)ccc31)[C@H](c1ccc(OCCO)cc1)N1[C@H](c3ccccc3)[C@H](c3ccccc3)OC(=O)[C@H]1[C@@H]2C(=O)N1CCN(c2ncccn2)CC1 records composite z-score of -0.1 or higher. true (1)

Test whether the compound COC(=O)[C@H](Cc1ccccc1)N1CC(/C=C/C2CC2)=C[C@H]1[C@H](O)Cc1ccccc1 records composite z-score of -0.1 or higher. true (1)

Test whether the compound Cc1ccc(S[C@]2(C(=O)O)CC(=O)N(Cc3cc(C(F)(F)F)cc(C(F)(F)F)c3)[C@@H]2c2ccc(CO)cc2)cc1 records composite z-score of -0.1 or higher. false (0)

Test whether the compound CC(C)(C)N1CC=CC23O[C@@H]4C=CCCOC(=O)C4[C@H]2C(=O)N(CCO)[C@@H]3C1=O (stereo not given in full) records composite z-score of -0.1 or higher. false (0)

Test whether the compound CCOC(=O)C1CCCCN1 (stereo not given) records composite z-score of -0.1 or higher. true (1)

Test whether the compound COc1ccc([Si](C)(C)[C@@H]2[C@@H](CC(=O)N(CCO)Cc3ccccc3)O[C@]3(C(=O)N(c4ccccc4)c4ccccc43)[C@H]2C)cc1 records composite z-score of -0.1 or higher. true (1)

Test whether the compound COCCCNC(=O)[C@@]1(Sc2ccc(C)cc2)CC(=O)N(C2CCCCC2)[C@@H]1c1ccc(CO)cc1 records composite z-score of -0.1 or higher. false (0)

Test whether the compound O=C(NCc1ccccc1)[C@@H]1c2ccccc2C(=O)N(Cc2ccccc2C(F)(F)F)[C@H]1c1ccc(CO)cc1 records composite z-score of -0.1 or higher. false (0)

Test whether the compound C=CCC(OC(C)=O)[C@@H]1[C@@H](N(Cc2cc3ccccc3o2)C(=O)c2ccc(C)cc2)c2cc(OCCCO)ccc2N1C(=O)Cc1ccc(OC)cc1 (stereo not given in full) records composite z-score of -0.1 or higher. true (1)

Test whether the compound COC1OC[C@]2(C)[C@H]3C4=C(CN2C(=O)OC(C)(C)C)[C@H](C)C(CO)C(CO)C4CC[C@@H]13 (stereo not given in full) records composite z-score of -0.1 or higher. true (1)

Test whether the compound C=CCOC(=O)[C@H]1[C@@H]2C(=O)O[C@@H](c3ccccc3)[C@@H](c3ccccc3)N2[C@@H](c2ccc(OCCOC(=O)[C@H]3C[C@H]4C(=O)N[C@@H](CC(C)C)C(=O)N4[C@H]3c3cccc(OCCO)c3)cc2)[C@]12C(=O)Nc1ccc(I)cc12 records composite z-score of -0.1 or higher. true (1)

Test whether the compound COc1cccc(/C=C/C=O)c1 records composite z-score of -0.1 or higher. false (0)

Test whether the compound CCCCCCCCCCC(O)C1C=CC2C(=O)N(C)C(=O)C2N1Nc1ccc([N+](=O)[O-])cc1[N+](=O)[O-] (stereo not given) records composite z-score of -0.1 or higher. true (1)

Test whether the compound CCOC(=O)C[C@H]1[C@H](OC(=O)c2cc3ccccc3oc2=O)[C@@H](NC(=O)Cc2ccc(OC)cc2)c2cc(OCCCO)ccc2N1C(=O)c1ccc2ccccc2n1 records composite z-score of -0.1 or higher. true (1)

Test whether the compound O=C1NC(=O)C2C1C=CC(C(O)c1ccco1)N2Nc1ccccn1 (stereo not given) records composite z-score of -0.1 or higher. false (0)

Test whether the compound COCC1=C2[C@@H](CCc3ccccc3)OB(O)C[C@@H]2[C@@H]2C(=O)C=CC(=O)[C@@H]2C1 records composite z-score of -0.1 or higher. true (1)

Test whether the compound COC(=O)[C@@]1(Cc2ccccc2)[C@H]2c3cc(C(=O)N(C)C)n(CCN4CNCC4=O)c3C[C@H]2CN1C(=O)c1ccccc1 records composite z-score of -0.1 or higher. true (1)

Test whether the compound O=C1C2C=CC(C(O)c3ccc(Br)cc3)N(Nc3ccccc3F)C2C(=O)N1c1ccccc1 (stereo not given) records composite z-score of -0.1 or higher. true (1)

Test whether the compound CC(C)C(CO)N1C(=O)[C@@H]2C3C(=O)OCCC/C=C\[C@H]3OC23C=CCN(C(C)(C)C)C(=O)[C@@H]13 (stereo not given in full) records composite z-score of -0.1 or higher. false (0)

Test whether the compound O=C1C=C(c2ccccc2)C(=O)c2ccc([C@H]3Oc4ccccc4S(=O)(=O)N4CCC[C@@H]34)cc21 records composite z-score of -0.1 or higher. false (0)

Test whether the compound C[N+](C)(C)CCCCCCNC(=O)[C@H]1C[C@H]2C(=O)NCC(=O)N2[C@H]1c1ccc(O)cc1 records composite z-score of -0.1 or higher. false (0)
